Tested on: CAKI-1 renal
assay method text: NCI tumour cell line growth inhibition, 48 h
measured metric: TGI (µM)

O=C(NCCc1nccs1)c1cnc2c(S)cccc2c1 = 37.4
Cc1nc2ccccc2c(/C=C/c2ccc(F)cc2)c1C(=O)/C=C/c1ccccc1 = 3.83
CC(C)(CO)CNc1nc(N)nc(Cl)c1C=O = 52.6
COc1cc2c(cc1OCCCN1CCOCC1)N=C[C@@H]1CCCN1C2=O = 26.3

###

# TGI values compiled below
Tested on: MOLT-4 leukemia
assay method text: NCI tumour cell line growth inhibition, 48 h
measured metric: TGI

O=C(O)CC(CC(=O)O)n1cccc1 = > 100 µM
COc1cc(C(C)c2cc3c(cc2OCCCCCOc2cc4c(cc2C(C)c2cc(OC)c(OC)c(OC)c2)OCO4)OCO3)cc(OC)c1OC (configuration not stated) = > 100 µM
CCCOC(=O)C1C(c2ccc(OC)cc2)NC(c2ccc(OC)cc2)C(C(=O)OCCC)S1(=O)=O (configuration not stated) = > 100 µM
COc1cc2c(cc1OCCCN1CCOCC1)N=C[C@@H]1CCCN1C2=O = > 100 µM
CCc1cccc(CC)c1Nc1nc(-c2ccccc2-c2ccccc2)cs1 = > 100 µM
COc1ccc(C(=O)c2[nH]c(Nc3cc(C)ccn3)c(C(=S)Nc3ccccc3)c2N)cc1 = > 100 µM
CCOC(=O)C1Cc2ccc(C)cc2C1=O (configuration not stated) = > 100 µM
COc1cc(/C=C2\CC3C4CC=C5C[C@@H](N6CCCC6)CC[C@]5(C)C4CC[C@]3(C)[C@H]2OC(C)=O)ccc1OCCCn1ccnc1 (some centres not stated) = > 15.4 µM
Cc1nc2ccccc2c(/C=C/c2ccc(C(F)(F)F)cc2)c1C(=O)/C=C/c1ccccc1 = 5.79 µM
CC1(c2cccc(C(F)(F)F)c2)CC(c2cccc(C(F)(F)F)c2)=C(C#N)C(=C(C#N)C#N)N1 (configuration not stated) = 38.5 µM
O=C1C[C@@H]2[C@@H](C=CC23CCCC3)N1O = > 100 µM
COc1ccc(-c2cc(-c3ccco3)c(C#N)c(=O)n2C2OC(COC(C)=O)C(OC(C)=O)C(OC(C)=O)C2OC(C)=O)cc1 (configuration not stated) = > 100 µM
Cc1ccc(-c2csc3ncnc(Nc4cccc(O)c4)c23)cc1 = > 100 µM
Cc1nc2sc(C(=O)Nc3cccc4c3OCCO4)c(N)c2cc1C(C)O (configuration not stated) = > 100 µM
CCCCCCCCCCCCNC(=S)OCCCC = 52.4 µM
C1=C(c2ccccc2)NC2=N[C@H]3CCCC[C@@H]3N2C1c1ccccc1 (some centres not stated) = 28.3 µM
CC(C)CC1C(=O)OC(C)(C)OC1=O = > 100 µM
O=C(Cn1c(C(=O)/C=C/c2ccc(Cl)c(Cl)c2)nc2ccccc21)c1ccccc1 = > 100 µM
Nc1ccccc1SC(CC(=O)c1ccccc1)c1c(Cl)cccc1Cl (configuration not stated) = 7.79 µM
COC(=O)/C=C1/OC(c2ccccc2)=C(Br)C1=O = > 100 µM
O=C(NCCc1nccs1)c1cnc2c(S)cccc2c1 = > 100 µM
C=C1C(=O)OC2/C=C(CO)/C=C\C3OC3(C)CC(OC(=O)/C(C)=C/COC(C)=O)C12 (configuration not stated) = 5.49 µM
CCOC(=O)c1sc2c(c1OC(=O)c1ccco1)c(=O)n(-c1ccccc1)c(=S)n2-c1ccccc1 = 49.3 µM
COC(=O)c1cc2c3cc(Cl)ccc3[nH]c2c2ncccc12 = > 100 µM
COc1ccc(-n2c(C)nc3ccc(NC4OC(COC(C)=O)C(OC(C)=O)C(OC(C)=O)C4OC(C)=O)cc3c2=O)cc1 (configuration not stated) = 80.8 µM
CCOP(=O)(OCC)/C(C#N)=C/c1cccn1C = > 100 µM
CCOC(=O)c1nc2sc(Cl)cn2c1/C=N/N=C(N)N = > 100 µM
CC1=NN(c2ccccc2Cl)C2(C1)C(Cl)C(=O)N2c1nc2ccccc2s1 (configuration not stated) = 91.6 µM
NC(=S)N/N=C1\CCc2ccccc2C1 = > 100 µM
CCOC(=O)c1c(C)n(Cc2ccc(Cl)cc2Cl)c2c1cc(O)c1[nH]c(Cc3ccccc3)nc12 = 5.27 µM
Nc1nc2cc(COc3ccc(C(=O)O)cc3)ccc2nc1-c1ccccc1 = > 10 µM
O=C(O)c1cc(-c2ccc3cc(O)c(O)cc3c2)ccc1O = > 12.5 µM
COC(=O)N1C=CC2=C(C)C3Nc4ccccc4C3C(C)=C2C1 (configuration not stated) = 12.3 µM
COc1ccc(/C=C2\CC3C4CC=C5C[C@@H](N6CCCC6)CC[C@]5(C)C4CC[C@]3(C)[C@H]2O)cc1OC (some centres not stated) = 38.3 µM
Nc1ncnc2c1ncn2C1(CO)OC(CO)C(O)C1O (configuration not stated) = > 100 µM
O=C1NCC2(CCN(CC3COc4ccccc4O3)CC2)N1c1ccccc1 (configuration not stated) = > 100 µM
NNC(=S)N/N=C(\c1nc2ccc(Cl)cc2[nH]c1=O)C(O)c1cccc([N+](=O)[O-])c1 (configuration not stated) = > 100 µM
COc1cccc(C2=C(c3cn(C)c4c(C)cccc34)C(=O)NC2=O)c1 = > 25 µM
N/N=C1\C(=O)N(c2ccc(Cl)c(Cl)c2)C(=O)C1C(=O)Nc1ccc(Cl)c(Cl)c1 (configuration not stated) = > 100 µM
Cc1cc(N)c2cc(NC(=O)/C=C\c3ccccc3Cl)ccc2n1 = 2.54 µM
COc1ccc2c(c1)C1Oc3ccccc3CC1CO2 (configuration not stated) = 52.9 µM
CC12CC(Br)(Br)C(=O)C3C1CCCC32 = 14.9 µM

These entries and their values trace back to PubChem BioAssay (NCI).
